Answer each item with its documented log2 fold change of degron read counts.
Molecular target: T1, CRBN, Q96SW2;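 further: pooled lentiviral library of zinc finger degron-EGFP fusions in mCherry-positive Jurkat cells, FACS-sorted after compound exposure, with degron abundance counted by next-generation sequencing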
T1 chain: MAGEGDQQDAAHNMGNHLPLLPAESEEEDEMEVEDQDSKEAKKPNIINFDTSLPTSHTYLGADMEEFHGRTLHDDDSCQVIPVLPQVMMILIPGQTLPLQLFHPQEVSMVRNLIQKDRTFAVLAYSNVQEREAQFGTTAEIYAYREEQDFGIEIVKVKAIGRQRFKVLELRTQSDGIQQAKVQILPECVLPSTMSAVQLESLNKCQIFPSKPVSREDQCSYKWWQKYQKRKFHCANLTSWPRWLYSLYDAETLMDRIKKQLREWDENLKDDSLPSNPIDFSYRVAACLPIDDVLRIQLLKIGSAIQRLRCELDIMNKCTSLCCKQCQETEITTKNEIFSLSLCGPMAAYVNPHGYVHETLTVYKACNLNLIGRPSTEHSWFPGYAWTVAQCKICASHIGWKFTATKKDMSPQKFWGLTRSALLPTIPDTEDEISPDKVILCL
Assay: log2 fold change of degron read counts, EGFP-low vs EGFP+ sorted cells (limma voom), compound-induced degradation; higher = more compound-induced degradation of the degron-EGFP fusion; degrons are variants of IKZF1/3 zinc finger 2; compound dose not given here
Conditions: Jurkat; 18 h; compound: thalidomide
Whole data set: some 8,300 sequences, median “log2 fold change of degron read counts, EGFP-low vs EGFP+ sorted cells (limma voom), compound-induced degradation” near -1.1, cut for the highest 2% near 3.2. Only a selection was taken, and the highest values are over-represented in it overall.
// print number alone

Query string: Supply reported log2 fold change of degron read counts belonging to this sequence: FKCNQCGHPFTQKGNLLRHIKL [46F_47K_49N_50Q_52G_53H_54P_55F_67L_, Q9UKT9]
Result string: -2.3

Query string: State, in one line, measured log2 fold change of degron read counts of FRCEVCGAMFTQKGNLLRHIKL [46F_47R_49E_50V_52G_53A_54M_55F_67L_, Q9UKT9]
Result string: 0.605

Query string: Give the measured log2 fold change of degron read counts for FFCEVCGASFTQKGNLLRHIKL [46F_47F_49E_50V_52G_53A_54S_55F_67L_, Q9UKT9]
Result string: 1.61

Query string: Dear colleague, please send me the reported log2 fold change of degron read counts for FYCEICGHEFTQKGNLLRHIKL [46F_47Y_49E_50I_52G_53H_54E_55F_67L_, Q9UKT9] when you can.
Result string: -2.55

Query string: // fetch log2 fold change of degron read counts given entry FYCNQCGRLFTQKGNLLRHIKL [46F_47Y_49N_50Q_52G_53R_54L_55F_67L_, Q9UKT9]
Result string: -1.7

Query string: Provide one value: measured log2 fold change of degron read counts of FECPICGHYFTQKGNLLRHIKL [46F_47E_49P_50I_52G_53H_54Y_55F_67L_, Q9UKT9]
Result string: -1.2

Query string: Return value of log2 fold change of degron read counts for input FNCEVCGASFTQKGNLLRHIKL [46F_47N_49E_50V_52G_53A_54S_55F_67L_, Q9UKT9] , no commentary.
Result string: 0.435

Query string: State its log2 fold change of degron read counts: FVCEICGAFFTQKGNLLRHIKL [46F_47V_49E_50I_52G_53A_54F_55F_67L_, Q9UKT9]
Result string: 1.08

Query string: For the sequence FLCEICGHCFTQKGNLLRHIKL [46F_47L_49E_50I_52G_53H_54C_55F_67L_, Q9UKT9] , give its reported log2 fold change of degron read counts.
Result string: -2.4

Query string: Read the entry FVCEQCGATFTQKGNLLRHIKL [46F_47V_49E_50Q_52G_53A_54T_55F_67L_, Q9UKT9] and write its reported log2 fold change of degron read counts.
Result string: -0.452

Query string: Provide one value: measured log2 fold change of degron read counts of FECPVCGACFTQKGNLLRHIKL [46F_47E_49P_50V_52G_53A_54C_55F_67L_, Q9UKT9]
Result string: 2.75

Query string: Answer with the recorded log2 fold change of degron read counts for the sequence listed here: FICDICGAAFTQKGNLLRHIKL [46F_47I_49D_50I_52G_53A_54A_55F_67L_, Q9UKT9]
Result string: 1.5

Query string: Item FTCNQCGALFTQKGNLLRHIKL [46F_47T_49N_50Q_52G_53A_54L_55F_67L_, Q9UKT9] : provide log2 fold change of degron read counts
Result string: -2.16

Query string: Name the recorded log2 fold change of degron read counts of the item LDCEICGFICTQKGNLLRHIKL [46L_47D_49E_50I_52G_53F_54I_55C_67L_, Q9UKT9] in your answer.
Result string: -0.457

Query string: Give log2 fold change of degron read counts for the following sequence: FHCNQCGHDFTQKGNLLRHIKL [46F_47H_49N_50Q_52G_53H_54D_55F_67L_, Q9UKT9]
Result string: -3.18

Query string: Give a short answer stating reported log2 fold change of degron read counts for FLCEVCGASFTQKGNLLRHIKL [46F_47L_49E_50V_52G_53A_54S_55F_67L_, Q9UKT9] .
Result string: 1.45

Query string: # return recorded log2 fold change of degron read counts for entry LVCEICGFPCTQKGNLLRHIKL [46L_47V_49E_50I_52G_53F_54P_55C_67L_, Q9UKT9]
Result string: -0.424

Query string: Consider the sequence FACDICGAAFTQKGNLLRHIKL [46F_47A_49D_50I_52G_53A_54A_55F_67L_, Q9UKT9] . State its measured log2 fold change of degron read counts.
Result string: -0.517

Query string: Tell me its log2 fold change of degron read counts given FCCEQCGANFTQKGNLLRHIKL [46F_47C_49E_50Q_52G_53A_54N_55F_67L_, Q9UKT9] as the entry.
Result string: -1.3

Query string: Quickly give me recorded log2 fold change of degron read counts for FVCPICGHVFTQKGNLLRHIKL [46F_47V_49P_50I_52G_53H_54V_55F_67L_, Q9UKT9]
Result string: -0.831

Query string: Provide log2 fold change of degron read counts value for the following sequence: FTCPQCGAWFTQKGNLLRHIKL [46F_47T_49P_50Q_52G_53A_54W_55F_67L_, Q9UKT9]
Result string: -0.222

Query string: Output log2 fold change of degron read counts of LTCNQCGFFCTQKGNLLRHIKL [46L_47T_49N_50Q_52G_53F_54F_55C_67L_, Q9UKT9]
Result string: -1.27

Query string: Provide only the value of recorded log2 fold change of degron read counts for LHCPICGFWCTQKGNLLRHIKL [46L_47H_49P_50I_52G_53F_54W_55C_67L_, Q9UKT9]
Result string: 1.59

Query string: Tell me measured log2 fold change of degron read counts for FGCEICGRQFTQKGNLLRHIKL [46F_47G_49E_50I_52G_53R_54Q_55F_67L_, Q9UKT9] please.
Result string: -1.42

Query string: Quickly give me recorded log2 fold change of degron read counts for FWCDICGAAFTQKGNLLRHIKL [46F_47W_49D_50I_52G_53A_54A_55F_67L_, Q9UKT9]
Result string: -0.516

Query string: Give recorded log2 fold change of degron read counts. FLCNQCGRHFTQKGNLLRHIKL [46F_47L_49N_50Q_52G_53R_54H_55F_67L_, Q9UKT9]
Result string: -2

Query string: Using the record for FTCPVCGACFTQKGNLLRHIKL [46F_47T_49P_50V_52G_53A_54C_55F_67L_, Q9UKT9] , state its measured log2 fold change of degron read counts.
Result string: 3.33

Query string: Provide one value: measured log2 fold change of degron read counts of FACDVCGACFTQKGNLLRHIKL [46F_47A_49D_50V_52G_53A_54C_55F_67L_, Q9UKT9]
Result string: -2.56

Query string: Indicate its recorded log2 fold change of degron read counts; the sequence in question is FYCEQCGAHFTQKGNLLRHIKL [46F_47Y_49E_50Q_52G_53A_54H_55F_67L_, Q9UKT9]
Result string: -1.6

Value source: the supplement of paper PMC12645437
